Molecular target: T1, monkey MSLN full-length protein (NCBI: XP_028696439.1) expressed on HEK293T-monkey MSLN cells (monkey)
T1 construct: Whole encoded precursor
T1 chain: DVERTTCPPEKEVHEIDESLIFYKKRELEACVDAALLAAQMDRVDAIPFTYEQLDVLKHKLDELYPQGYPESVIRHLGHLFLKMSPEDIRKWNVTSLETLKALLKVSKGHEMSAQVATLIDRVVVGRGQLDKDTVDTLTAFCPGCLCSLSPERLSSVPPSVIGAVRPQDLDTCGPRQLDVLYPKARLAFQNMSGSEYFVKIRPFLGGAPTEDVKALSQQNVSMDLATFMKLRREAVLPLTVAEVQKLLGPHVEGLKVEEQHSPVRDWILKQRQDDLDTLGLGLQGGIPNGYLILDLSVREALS
Assay: FACS on HEK293T-monkey MSLN cells
parameter-measured: pEC50
Please treat pEC50 as minus the base-10 logarithm of the molar concentration.

binder	pEC50
S009-F2.47.1 (antibody, human IgG1, kappa, V domains shown, human-murine chimeric antibody, human IgG1/kappa constant regions) VH: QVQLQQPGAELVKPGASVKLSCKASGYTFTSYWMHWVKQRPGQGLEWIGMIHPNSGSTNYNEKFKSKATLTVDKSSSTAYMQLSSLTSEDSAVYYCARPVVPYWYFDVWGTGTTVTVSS VL: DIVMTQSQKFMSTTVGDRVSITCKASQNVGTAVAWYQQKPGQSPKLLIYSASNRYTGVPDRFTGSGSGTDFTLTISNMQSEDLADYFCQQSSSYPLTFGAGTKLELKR	9.49

Next binder, please.
input: # pEC50 lookup, item S009-F2.21.4 (antibody, human IgG1, kappa, V domains shown, human-murine chimeric antibody, human IgG1/kappa constant regions) VH: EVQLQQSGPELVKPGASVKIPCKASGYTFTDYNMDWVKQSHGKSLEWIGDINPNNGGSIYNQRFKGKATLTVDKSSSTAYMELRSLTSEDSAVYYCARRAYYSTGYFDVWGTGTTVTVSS VL: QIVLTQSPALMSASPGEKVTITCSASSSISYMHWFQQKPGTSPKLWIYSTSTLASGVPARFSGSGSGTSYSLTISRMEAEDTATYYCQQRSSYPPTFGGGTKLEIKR
output: 9.36

// data source = patent US20250250357A1
